Origin of measurements: paper PMC5540273

Test system: SRPK2;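 also: KINOMEscan kinase panel screen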
Measurement conditions: concentration: 1 μM, replicates: in singlicate; n = 1

- Cpd smiles: "CSc1ccc(NC2=C(c3ccc(Cl)cc3)C(=O)NC2=O)cc1"
  Target: "SRPK2"
  %Inh (%): 7
- Cpd smiles: "COc1cccc(CC(=O)N2CCc3cc(-c4cn(C)c5ncnc(N)c45)ccc32)c1"
  Target: "SRPK2"
  %Inh (%): 0
- Cpd smiles: "CC(C)(C)c1ccc(C(=O)Nc2cn3cc(-n4ccnc4)ccc3n2)cc1"
  Target: "SRPK2"
  %Inh (%): 0
- Cpd smiles: "O=C(Nc1n[nH]c2nc(-c3ccccc3)ccc12)C1CC1"
  Target: "SRPK2"
  %Inh (%): 23
- Cpd smiles: "CS(=O)(=O)c1cccc(CNc2nc(Nc3ccc4c(c3)CCC(=O)N4)ncc2C(F)(F)F)c1"
  Target: "SRPK2"
  %Inh (%): 0
